// data source = ChEMBL document CHEMBL1158264

Record form. Attribute: MED. Fill in for each entry.
Species: Bos taurus
PROTOCOL_SUMMARY: Inhibition of calf thymus DNA topoisomerase 1 assessed as minimum efficient dose
Answers are plain numbers, in µg/mL.

[
  {
    "MOLECULE": "COc1cc(O)c2c(=O)cc(-c3cc(OC)c(O)c(OC)c3)oc2c1",
    "MED (µg/mL)": 1
  },
  {
    "MOLECULE": "CC[C@@]1(O)C(=O)OCc2c1cc1n(c2=O)Cc2cc3ccccc3nc2-1",
    "MED (µg/mL)": 0.03
  }
]

We now examine a further molecule.
Query: State, in one line, measured MED of COc1cc(O)c2c(=O)cc(-c3ccc(O)c(OC)c3)oc2c1 [VELUTIN]
Reply: 0.1
